study.system: hTopo II (Homo sapiens)
Construct: purchased TopoGEN, Port Orange, FL
Sequence (P11388 whole entry): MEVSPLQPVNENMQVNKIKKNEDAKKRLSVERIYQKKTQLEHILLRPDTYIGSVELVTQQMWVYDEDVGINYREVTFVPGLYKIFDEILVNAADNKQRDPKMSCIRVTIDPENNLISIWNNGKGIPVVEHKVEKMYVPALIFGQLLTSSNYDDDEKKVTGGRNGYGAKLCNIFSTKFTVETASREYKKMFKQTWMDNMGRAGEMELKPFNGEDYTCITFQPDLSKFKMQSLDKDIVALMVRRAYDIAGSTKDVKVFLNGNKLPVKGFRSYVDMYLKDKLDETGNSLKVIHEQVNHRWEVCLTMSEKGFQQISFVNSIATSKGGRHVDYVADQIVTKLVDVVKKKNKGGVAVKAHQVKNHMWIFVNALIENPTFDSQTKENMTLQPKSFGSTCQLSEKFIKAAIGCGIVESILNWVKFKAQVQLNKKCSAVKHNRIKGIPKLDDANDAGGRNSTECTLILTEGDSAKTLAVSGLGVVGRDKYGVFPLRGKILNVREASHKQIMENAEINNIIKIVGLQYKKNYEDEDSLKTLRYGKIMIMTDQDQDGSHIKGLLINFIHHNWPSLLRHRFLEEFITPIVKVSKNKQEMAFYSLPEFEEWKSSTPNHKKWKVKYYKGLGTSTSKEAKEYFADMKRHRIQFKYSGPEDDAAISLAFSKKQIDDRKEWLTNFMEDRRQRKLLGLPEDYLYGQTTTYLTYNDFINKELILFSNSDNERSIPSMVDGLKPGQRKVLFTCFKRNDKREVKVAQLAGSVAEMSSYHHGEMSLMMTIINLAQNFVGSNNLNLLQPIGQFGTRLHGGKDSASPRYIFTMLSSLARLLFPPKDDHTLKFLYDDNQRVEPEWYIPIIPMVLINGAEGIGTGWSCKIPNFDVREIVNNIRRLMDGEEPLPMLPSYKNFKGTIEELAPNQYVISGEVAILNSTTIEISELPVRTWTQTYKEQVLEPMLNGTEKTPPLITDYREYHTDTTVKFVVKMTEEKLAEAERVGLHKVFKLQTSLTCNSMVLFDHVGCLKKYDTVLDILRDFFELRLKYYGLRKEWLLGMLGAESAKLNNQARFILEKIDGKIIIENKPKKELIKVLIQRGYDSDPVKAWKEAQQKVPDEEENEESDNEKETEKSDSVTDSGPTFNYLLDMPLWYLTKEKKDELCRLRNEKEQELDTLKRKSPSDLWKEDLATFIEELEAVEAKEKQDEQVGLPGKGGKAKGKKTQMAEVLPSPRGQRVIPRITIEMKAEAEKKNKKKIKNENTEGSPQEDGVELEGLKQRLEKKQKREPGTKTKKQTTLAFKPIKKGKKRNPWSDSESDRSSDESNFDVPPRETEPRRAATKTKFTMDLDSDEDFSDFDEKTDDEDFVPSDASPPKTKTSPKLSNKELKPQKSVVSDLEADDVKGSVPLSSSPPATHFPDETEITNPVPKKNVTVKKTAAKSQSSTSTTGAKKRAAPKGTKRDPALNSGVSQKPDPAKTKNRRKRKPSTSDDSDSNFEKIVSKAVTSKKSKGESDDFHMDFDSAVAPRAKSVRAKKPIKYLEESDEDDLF
experiment.summary: hTopo II decatenation assay
Format: biochemical
Parameters: key: (+) inhibition; (−) no inhibition; (+/−) partial inhibition
study.conditions: 10 µM
assay.endpoint: Topoisomerase Inhibition hTopo II

- molecule: "COc1cc(/C=C2\\SC(=O)N(CC(=O)Nc3nc(-c4ccc(C)cc4)cs3)C2=O)cc(OC)c1OC"
  Topoisomerase Inhibition hTopo II: "−"
- molecule: "COc1cc(/C=C2\\SC(=O)N(CC(=O)Nc3nc(-c4ccc(Cl)cc4)cs3)C2=O)cc(OC)c1OC"
  Topoisomerase Inhibition hTopo II: "−"
- molecule: "Cc1c2ccncc2c(C)c2c1[nH]c1ccccc12 [ellipticine, reference compound]"
  Topoisomerase Inhibition hTopo II: "+/−"
- molecule: "COc1cc(/C=C2\\SC(=O)N(CC(=O)Nc3nc(-c4ccc(Br)cc4)cs3)C2=O)cc(OC)c1OC"
  Topoisomerase Inhibition hTopo II: "−"
- molecule: "COc1cc(/C=C2\\SC(=O)N(CC(=O)Nc3nc(-c4ccccc4)cs3)C2=O)cc(OC)c1OC"
  Topoisomerase Inhibition hTopo II: "−"

Okay, now this molecule:
What Topoisomerase Inhibition hTopo II value was documented for this molecule, COc1cc(/C=C2\SC(=O)N(CC(=O)Nc3nc4ccccc4s3)C2=O)cc(OC)c1OC ?
−
